Cited source for all entries: the supplement of paper PMC10567573

B1: CAMK2A (parent)
chain: CIQQILEAVLHCHQMGVVHRDLKP

variants of: B1; experiment: protein stability index of a GFP-peptide fusion (GPS, HEK-293T) (PSI 1-6); higher = more stable; conditions: c terminus: a fixed tail appended;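 note: lentivirally expressed fusions sorted by FACS into six bins by GFP to DsRed ratio, PSI derived from sequencing read proportions per bin multiplied by bin number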
protein stability index for assorted variants

L6F ... 1.07
H13Y ... 3.92
C1V ... 2.22
M15C ... 2.85
Q3Y ... 3.67

protein stability index lookup needed for `L22H` , thanks.
1.99

Ok, now `V17C`
2.21

Ok, now `A8G`
3.6

Ok, now `L6T`
1.69

Ok, now `A8Q`
2.42

Ok, now `H13W`
1.27

Ok, now `V18A`
2.83

Ok, now `P24Q`
1.86

Ok, now `I2W`
1.35

Ok, now `V18K`
2.97

Ok, now `V17Q`
2.79

Ok, now `M15H`
2.24

Ok, now `I5M`
4.53

Ok, now `V9I`
2.04
